These data points were gathered from ChEMBL document CHEMBL5523747.

assay: Metabolic stability in human liver microsomes assessed as intrinsic clearance; assay type: ADME, Microsome; settings: read-out: CLH
recorded_endpoint: microsomal CLint (µL/min/mg)
Just the number please, in µL/min/mg, no unit attached.

Lookup: Param item = N#Cc1ccc(N2CCC(c3ccc(OCCCCN4CCN(c5ccc6c(c5)CN(C5CCC(=O)NC5=O)C6=O)CC4)cc3)CC2)cc1C(F)(F)F (centres undefined) ; retrieve measured microsomal CLint.
Found: 10

Lookup: Cool, now N#Cc1ccc(N2CCC(c3ccc(N4CCC(CN5CCN(c6ccc7c(c6)CN(C6CCC(=O)NC6=O)C7=O)CC5)CC4)cc3)CC2)cc1C(F)(F)F (centres undefined)
Found: 3

Lookup: Cool, now N#Cc1ccc(N2CCC(c3ccc(OCCCN4CCN(c5ccc6c(c5)CN(C5CCC(=O)NC5=O)C6=O)CC4)cc3)CC2)cc1C(F)(F)F (centres undefined)
Found: 5
